Molecular target: T1, recombinant human LAG3 protein (rhLAG3), HIS-tagged (ACRO) or biotinylated (R&D Cat #2319-C3) (human, UniProt P18627 23-450, biotinylated in part of the assays)
T1 sequence: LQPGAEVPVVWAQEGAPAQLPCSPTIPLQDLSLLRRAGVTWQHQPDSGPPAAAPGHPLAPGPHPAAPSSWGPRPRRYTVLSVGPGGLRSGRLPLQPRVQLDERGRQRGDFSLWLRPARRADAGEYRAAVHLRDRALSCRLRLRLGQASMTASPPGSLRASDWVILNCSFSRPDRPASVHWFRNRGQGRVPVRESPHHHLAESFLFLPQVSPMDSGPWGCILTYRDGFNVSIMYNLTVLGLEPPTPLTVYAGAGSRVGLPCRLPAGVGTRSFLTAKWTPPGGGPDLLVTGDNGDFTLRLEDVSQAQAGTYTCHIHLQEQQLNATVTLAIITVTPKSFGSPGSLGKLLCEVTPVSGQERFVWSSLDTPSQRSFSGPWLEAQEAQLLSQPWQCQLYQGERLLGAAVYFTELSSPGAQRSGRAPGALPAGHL
Test: flow cytometry competition, rhLAG3 binding to Daudi cells; competitor MHCII
pIC50: −log10 of the molar value.
Quick reference for pIC50 among some binders

{"BINDER": "SRP1627-B01 (scFv, V domains shown) VH: QVQLVQSGAEVKKPGSSVKVSCKASGFNITDLYMHWVRQAPGQGLEWIARIDPWNGDTEYAPKFQGRATITADESTSTAYMELSSLRSEDTAVYYCIASEMVDYWGQGTLVTVSS VL: DVVMTQSPLSLPVTLGQPASISCKSSQSLLDSDGKTYLNWFQQRPGQSPRRLIYLVSKLDSGVPDRFSGSGSGTDFTLKISRVEAEDVGVYYCSTYSHFPQTFGQGTKVEIK", "pIC50": 9.40}
{"BINDER": "SRP1627-A11 (scFv, V domains shown) VH: QVQLVQSGAEVKKPGSSVKVSCKASGFNINDYFMHWVRQAPGQGLEWIARIDPWNGDTEYAPKFQGRVTITADESTSTAYMELSSLRSEDTAVYYCGMSDALDYWGQGTLVTVSS VL: DVVMTQSPLSLPVTLGQPASISCKSSQSLLDSDGKTYLNWFQQRPGQSPRRLIYLVSKLDSGVPDRFSGSGSGTDFTLKISRVEAEDVGVYYCWHGINFPQTFGQGTKVEIK", "pIC50": 8.80}
{"BINDER": "SRP1627-A02 (scFv, V domains shown) VH: QVQLVQSGAEVKKPGSSVKVSCKASGFNINDYFMHWVRQAPGQGLEWIARIDPWNGDTEYAPKFQGRVTITADESTSTAYMELSSLRSEDTAVYYCGMSDALDYWGQGTLVTVSS VL: DVVMTQSPLSLPVTLGQPASISCKSSQSLLDSDGKTYLNWFQQRPGQSPRRLIYLVSKLDSGVPDRFSGSGSGTDFTLKISRVEAEDVGVYYCSHGNPVPQTFGQGTKVEIK", "pIC50": 8.77}
{"BINDER": "SRP1449-B03 (scFv, V domains shown) VH: QVQLVESGGGVVQPGRSLRLSCAASGFTFSSYGMHWVRQAPGKGLEWVAAIWYDASYKYYADSVKGRFTISRDNSKNTLYLQMNSLRAEDTAVYYCAREWAVASWDYALDVWGQGTTVTVSS VL: EIVLTQSPGTMSLSPGERATLSCRASQSVSSSYLAWYQQKPGQAPRLLIYGASSRATGIPDRFSGSGSGTDFTLTISRLEPEDFAVYYCQQYDRSPLTFGPGTKVDIK", "pIC50": 9.00}

Provenance of the data: patent US20200079850A1
